assay: Luminescence activity assay of purified Gaussia luciferase mutants on coelenterazine derivative ZS2; format: biochemical; set-up: key: ratio of mutant luminescence intensity to wild-type Gaussia luciferase; conditions: Substrate ZS2 (Table 16)
Mark each entry MET if its Activity of mutant relative to wild-type Gaussia luciferase without the signal peptide sits below 0.3, and NOT MET for all others.

Examples from the recorded data:
F26S N27Y V29C A32G S33E A36Q T37G L40T: Gaussia luciferase mutant (protein, SIGNAL (1)..(17), Gaussia luciferase mutant) MGVKVLFALICIAVAEAKPTENNEDSYICAVGENFQGTDTDADRGKLPGKKLPLEVLKEMEANARKAGCTRGCLICLSHIKCTPKMKKFIPGRCHTYEGDKESAQGGIGEAIVDIPEIPGFKDLEPMEQFIAQVDLCVDCTTGCLKGLANVQCSDLLKKWLPQRCATFASKIQGQVDKIKGAGGD ... MET
F26R N27D V29C A30G V31L A32D S33V A36V T37S: Gaussia luciferase mutant (protein, SIGNAL (1)..(17), Gaussia luciferase mutant) MGVKVLFALICIAVAEAKPTENNEDRDICGLDVNFVSTDLDADRGKLPGKKLPLEVLKEMEANARKAGCTRGCLICLSHIKCTPKMKKFIPGRCHTYEGDKESAQGGIGEAIVDIPEIPGFKDLEPMEQFIAQVDLCVDCTTGCLKGLANVQCSDLLKKWLPQRCATFASKIQGQVDKIKGAGGD ... MET
P84A E102S S103T A104G E110A L124M V138E: Gaussia luciferase mutant (protein, SIGNAL (1)..(17), Gaussia luciferase mutant) MGVKVLFALICIAVAEAKPTENNEDFNIVAVASNFATTDLDADRGKLPGKKLPLEVLKEMEANARKAGCTRGCLICLSHIKCTAKMKKFIPGRCHTYEGDKSTGQGGIGAAIVDIPEIPGFKDMEPMEQFIAQVDLCEDCTTGCLKGLANVQCSDLLKKWLPQRCATFASKIQGQVDKIKGAGGD ... NOT MET
F26A N27D V29R A30G A32E S33G A36P L40A: Gaussia luciferase mutant (protein, SIGNAL (1)..(17), Gaussia luciferase mutant) MGVKVLFALICIAVAEAKPTENNEDADIRGVEGNFPTTDADADRGKLPGKKLPLEVLKEMEANARKAGCTRGCLICLSHIKCTPKMKKFIPGRCHTYEGDKESAQGGIGEAIVDIPEIPGFKDLEPMEQFIAQVDLCVDCTTGCLKGLANVQCSDLLKKWLPQRCATFASKIQGQVDKIKGAGGD ... NOT MET
Q152H Q163D S170N G174S Q175E D177S A182Y: Gaussia luciferase mutant (protein, SIGNAL (1)..(17), Gaussia luciferase mutant) MGVKVLFALICIAVAEAKPTENNEDFNIVAVASNFATTDLDADRGKLPGKKLPLEVLKEMEANARKAGCTRGCLICLSHIKCTPKMKKFIPGRCHTYEGDKESAQGGIGEAIVDIPEIPGFKDLEPMEQFIAQVDLCVDCTTGCLKGLANVHCSDLLKKWLPDRCATFANKIQSEVSKIKGYGGD ... NOT MET
Q152H Q163T T167G S170N Q175E A182L G183A: Gaussia luciferase mutant (protein, SIGNAL (1)..(17), Gaussia luciferase mutant) MGVKVLFALICIAVAEAKPTENNEDFNIVAVASNFATTDLDADRGKLPGKKLPLEVLKEMEANARKAGCTRGCLICLSHIKCTPKMKKFIPGRCHTYEGDKESAQGGIGEAIVDIPEIPGFKDLEPMEQFIAQVDLCVDCTTGCLKGLANVHCSDLLKKWLPTRCAGFANKIQGEVDKIKGLAGD ... MET
T96P Q163D T167S G174N K178S A182Y G183A: Gaussia luciferase mutant (protein, SIGNAL (1)..(17), Gaussia luciferase mutant) MGVKVLFALICIAVAEAKPTENNEDFNIVAVASNFATTDLDADRGKLPGKKLPLEVLKEMEANARKAGCTRGCLICLSHIKCTPKMKKFIPGRCHPYEGDKESAQGGIGEAIVDIPEIPGFKDLEPMEQFIAQVDLCVDCTTGCLKGLANVQCSDLLKKWLPDRCASFASKIQNQVDSIKGYAGD ... MET
I10T C11S A13D A15I E16R A17S: Gaussia luciferase mutant (protein, SIGNAL (1)..(17), Gaussia luciferase mutant) MGVKVLFALTSIDVIRSKPTENNEDFNIVAVASNFATTDLDADRGKLPGKKLPLEVLKEMEANARKAGCTRGCLICLSHIKCTPKMKKFIPGRCHTYEGDKESAQGGIGEAIVDIPEIPGFKDLEPMEQFIAQVDLCVDCTTGCLKGLANVQCSDLLKKWLPQRCATFASKIQGQVDKIKGAGGD ... MET

Would you kindly look at the next entry?
Exam item: Answer whether the molecule Q152R Q163S T167G S170D G174K A182Y G183A: Gaussia luciferase mutant (protein, SIGNAL (1)..(17), Gaussia luciferase mutant) MGVKVLFALICIAVAEAKPTENNEDFNIVAVASNFATTDLDADRGKLPGKKLPLEVLKEMEANARKAGCTRGCLICLSHIKCTPKMKKFIPGRCHTYEGDKESAQGGIGEAIVDIPEIPGFKDLEPMEQFIAQVDLCVDCTTGCLKGLANVRCSDLLKKWLPSRCAGFADKIQKQVDKIKGYAGD has Activity of mutant relative to wild-type Gaussia luciferase without the signal peptide strictly less than 0.3
Marked response: NOT MET
